For each of the compounds below, state its GTP binding, percent of control.
biological target: GTPase HRas (Homo sapiens) (UniProt P01112); experiment: Ras wt fluorescent GTP loading blockade – biochemical, wildtype, multiplex bead flow cytometry, dose response (AID 1335); conditions: bead-based flow cytometry, Bodipy-GTP binding to GST-Ras; at 100 µM (top of the series) unless noted
Sequence (P01112 whole entry, looked up): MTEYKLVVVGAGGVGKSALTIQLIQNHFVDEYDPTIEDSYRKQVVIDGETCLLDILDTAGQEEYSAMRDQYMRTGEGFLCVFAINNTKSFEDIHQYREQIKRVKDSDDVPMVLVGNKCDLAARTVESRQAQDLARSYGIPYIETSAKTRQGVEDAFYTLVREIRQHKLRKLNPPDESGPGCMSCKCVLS
Answers are plain numbers, in %.

Value sought for every listed compound: GTP binding, percent of control.
1. Cc1cc(C(=O)O)sc1CNc1ccc(Cl)cc1
2. Cc1cc2nc3c(=O)[nH]c(=O)[nH]c3nc2c([N+](=O)[O-])c1N
3. N#CC(c1ccc(Cl)nn1)c1ccc(Cl)cc1Cl (stereo unspecified)

88.6
75.6
77.7

Value sought for every listed compound: GTP binding, percent of control.
1. C/C(=N\NC(=O)c1ccc(Cl)c(S(=O)(=O)Nc2ccccc2Cl)c1)c1ccncc1
2. Cc1cc(N=NC(=O)c2ccccc2O)c2ccccc2c1O
3. O=S(=O)(Cc1ccccc1)c1ccccc1-c1nnc(-c2ccccc2)o1
4. COc1ccccc1OCCn1cc(C(=O)O)c2c(C)cccc21
5. CCOc1ccc(C2C(C(=O)O)CCC(=O)N2C2CCCCC2)cc1 (stereo unspecified)
6. O=C(O)C1(NCc2ccc(F)cc2)CCCCC1
7. COc1ccc(/C=N/NC(=O)CSc2n[nH]c(=O)[nH]c2=O)cc1
8. Cc1ccc(C(=O)c2ccccc2C(=O)O)cc1

54
85.2
166
202
59.8
89.4
69.6
89.9
